pIC50 reference
System tested: interaction between p53 and MDM2 proteins (recombinant GST-tagged MDM2 / biotinylated p53 peptide) (Homo sapiens)
Sequence (Q00987 whole entry): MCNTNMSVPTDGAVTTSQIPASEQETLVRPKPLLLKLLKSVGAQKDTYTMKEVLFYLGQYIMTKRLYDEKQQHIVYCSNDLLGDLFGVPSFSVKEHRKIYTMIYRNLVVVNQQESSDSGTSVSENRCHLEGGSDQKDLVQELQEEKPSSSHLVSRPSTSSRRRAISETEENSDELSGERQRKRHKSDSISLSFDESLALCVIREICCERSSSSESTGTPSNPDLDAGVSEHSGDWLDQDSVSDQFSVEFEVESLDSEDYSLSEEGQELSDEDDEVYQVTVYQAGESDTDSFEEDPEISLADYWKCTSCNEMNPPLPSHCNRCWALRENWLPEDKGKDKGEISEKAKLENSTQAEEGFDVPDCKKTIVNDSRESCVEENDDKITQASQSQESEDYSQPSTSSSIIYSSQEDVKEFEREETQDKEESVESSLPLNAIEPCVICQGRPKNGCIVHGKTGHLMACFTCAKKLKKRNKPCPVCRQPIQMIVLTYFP
Test summary: HTRF (homogeneous time-resolved fluorescence) assay of p53-MDM2 interaction inhibition
Assay type: binding
Particulars: bsa: 0.02%
Bear in mind: pIC50 is minus log10 of a mol/L concentration; give just that figure.

Please review the following examples before continuing.
Compound	pIC50
CC(C)(C)C[C@@H]1N(CC[C@@H](O)[C@H](O)[C@H](O)CO)[C@@H](CO)[C@H](c2cccc(Cl)c2)[C@@]1(C#N)c1ccc(Cl)cc1 (racemic)	6.13
CC(C)(C)C[C@@H]1N(CCCc2cn(C(c3ccccc3)(c3ccccc3)c3ccccc3)cn2)[C@@H](CO)[C@H](c2cccc(Cl)c2F)[C@@]1(C#N)c1ccc(Cl)cc1F	6.67
C#CCN1[C@@H](CC(C)(C)C)[C@](C#N)(c2ccc(Cl)cc2F)[C@@H](c2cccc(Cl)c2F)[C@@H]1CO	5.63
CC(C)(C)C[C@@H]1N(CC#C[Si](C)(C)C)[C@@H](CO)[C@H](c2cccc(Cl)c2F)[C@@]1(C#N)c1ccc(Cl)cc1F	5.97
CC(C)(C)C[C@@H]1N(C[C@@H]2C[C@H]2C(=O)O)[C@@H](CO)[C@H](c2cccc(Cl)c2F)[C@@]1(C#N)c1ccc(Cl)cc1F [Example 10a]	7.06

Okay, now this compound:
Query: Could you tell me which pIC50 is on file for CCOC(=O)C1CC1CN1[C@@H](CC(C)(C)C)[C@](C#N)(c2ccc(Cl)cc2F)[C@@H](c2cccc(Cl)c2F)[C@@H]1CO (stereo partly drawn) ?
Response: 5.63
